System: UACC-62 melanoma
Experiment description: NCI tumour cell line growth inhibition, 48 h
Record form. Attribute: GI50. Fill in for each entry.

# input Tell me the measured GI50 of COc1ccc(/C(C)=N/NC(=O)CSc2nc3ccccc3c(=O)n2CCc2ccc(S(N)(=O)=O)cc2)cc1 , please.
# output 2.2 µM

# input Which value of GI50 has been reported for O=C(CSCC(=O)N/N=C/c1ccccc1O)N/N=C\c1ccccc1O in the records?
# output 1.61 µM

# input Give its GI50 value. Item: CCC1C(C)C=NN1c1nc(N)nc(C(C#N)=Nc2ccc(N(C)C)cc2)n1 (stereo unspecified)
# output 14.6 µM

# input Dear colleague, I am looking for the recorded GI50 of the following molecule: N#CC1=C(N)NC(=S)NC1c1ccc(-c2ccc(-c3nc4ccccc4o3)cc2)s1 (stereo unspecified)
# output 9.2 µM

# input Can you share its GI50? I mean this molecule: O=C(O)c1cc2ccccc2c2c3c(ccc12)OCO3
# output 116 µM

# input Please report the recorded GI50 for Cc1ccc(Nc2cc(Cl)c([N+](=O)[O-])cc2[N+](=O)[O-])cc1 .
# output 4.13 µM

---

Test system: SK-MEL-5 melanoma
Experiment description: NCI tumour cell line growth inhibition, 48 h
Consider the following molecules; for each one, report its TGI.
Report as a plain number; the unit µM is understood.

# input Which TGI value is on record for Cc1cc(N(CCC#N)CCC#N)ccc1N=Nc1cc(Cl)ccc1Cl ?
# output 30.3

# input Which TGI value is on record for O=C(O)c1cc2ccccc2c2c3c(ccc12)OCO3 ?
# output 281

# input Consider the molecule COc1cc2cc(C(=O)N3CC(CCl)c4ccc([N+](C)(C)Cc5ccc([N+](=O)[O-])cc5)cc43)[nH]c2c(OC)c1OC (centres undefined) and give its measured TGI.
# output 3.31

# input Recorded TGI for COc1ccc(C(=O)NC2=C(Cl)C(=O)c3ccccc3C2=O)cc1 , please?
# output 4.59

---

Would you mind telling me the reported GI50 of each entry?
Test system: NCI-H23 lung
Experiment description: NCI tumour cell line growth inhibition, 48 h

# input Request - read-out GI50 | tested on NCI-H23 lung | compound O=C(CSCC(=O)N/N=C/c1ccccc1O)N/N=C\c1ccccc1O
# output 3.33 µM

# input For the record Cc1cc(C(=O)/C=C/c2ccc[nH]2)ccc1-n1ccc(C(F)(F)F)n1 , what value of GI50 is listed for NCI-H23 lung?
# output 14.9 µM

# input Enter reported GI50 observed with NCI-H23 lung for Nc1nonc1-c1nc2ccccc2n1Cc1ccc(F)cc1
# output 87 µM

# input Fill in the recorded GI50 for this compound, with NCI-H23 lung as test system: C[C@]12CC[C@@H]3c4ccc(O)cc4CC[C@H]3[C@@H]1CC[C@@H]2NS(=O)(=O)c1ccc(Br)cc1
# output 3.44 µM

# input Query for NCI-H23 lung: what GI50 does the record show for COc1cc(Cl)cc(-c2nn(-c3cccc(NC(=O)Nc4cccc(C(F)(F)F)c4)c3)cc2-c2ccncc2)c1 ?
# output 1.76 µM

---

Test system: NCI-H226 lung
Experiment description: NCI tumour cell line growth inhibition, 48 h
*1 amine or outer side, *2 acyl side, *3 side chain or, on linkers, in order; H or OH if unused. Where a SMILES comes first, the peptide text is derived from it. [ ]: non-standard residue; d: D form. The star is where a group is joined. ξ: configuration not given here. NMeY = CN[C@@H](Cc1ccc(O)cc1)C(=O)O; Ethylenediamine = C(CN[*:2])N[*:1]; ξNMeL = CNC(CC(C)C)C(=O)O; Cbz = O=C(OCc1ccccc1)*; Lac = C[C@H](O)C(=O)O; ξA = CC(N)C(=O)O
Measured quantity: TGI

# input Which measured TGI value corresponds to CN(CCNC(=O)c1c[nH]c2c1ccc1ccccc12)CCNC(=O)c1c[nH]c2c1ccc1ccccc12 ?
# output 40.5 µM

# input Dear colleague, I am looking for the recorded TGI of the following compound: Cc1ccccc1NC(=O)/C=N/O
# output > 100 µM

# input Quick one: TGI of COc1ccc(C[C@@H](C(=O)NCCNC(=O)C(CC(C)C)N(C)C(=O)[C@@H]2CCCN2C(=O)[C@H](C)O)N(C)C(=O)[C@@H]2CCCN2C(=O)[C@H](CC(C)C)NC(=O)C(C)NC(=O)OCc2ccccc2)cc1 (stereo partly specified) (Cbz-[ξA]LP[NMeY](Me)-{Ethylenediamine-ξNMeL-Pro-Lac}) ?
# output > 100 µM

# input Reported TGI, compound O=C(O)c1nc2ccc(Cl)cc2[nH]c1=O : ____
# output > 100 µM

# input State the recorded TGI for this entry: Cc1ccc(C(=O)NCCCOc2ccc(N3C(N)=NC(N)=NC3(C)C)cc2Cl)cc1S(=O)(=O)F
# output > 100 µM

# input Consider the compound shown here: CCOC(=O)Nc1nc2ccccc2[nH]1 What is its recorded TGI?
# output > 100 µM

# input Entry Cc1cc(C(=O)Nc2n[nH]c3ccccc23)n[nH]1 : reported TGI = ?
# output > 100 µM

# input Query (compound): O=C1c2c(Br)sc(Br)c2[C@@H](Cl)[C@H]1Cl ; field requested: TGI
# output 36.4 µM

# input I have this compound here, Cc1ccc(Nc2cc(Cl)c([N+](=O)[O-])cc2[N+](=O)[O-])cc1 , and I need its recorded TGI.
# output 6.81 µM

# input # lookup: TGI of c1ccc2c(c1)nc1n2CSCC1
# output > 100 µM

# input Item under review: O=C(CSCC(=O)N/N=C/c1ccccc1O)N/N=C\c1ccccc1O . Reported TGI?
# output > 100 µM

# input I am curious: what TGI value has been reported for N#COc1ccc(Oc2ccccc2)cc1 ?
# output > 100 µM

# input Please give the measured TGI for this compound: CC1=NN(c2nc(N)nc(CSc3cc(Cl)c(C)cc3S(N)(=O)=O)n2)C(C)(C)C1
# output > 10 µM

# input # lookup: TGI of CC(=O)OC1OC(c2ccoc2)C[C@@]12C1CCC3O[C@]3(C)[C@]1(C)[C@H](OC(C)=O)[C@H](OC(C)=O)[C@H]2C (stereo partly specified)
# output > 37.5 µM

# input Can you look up the measured TGI of Cc1coc2c1C(=O)C(=O)c1ccccc1-2 for me?
# output 2.55 µM

# input Can you share its TGI? I mean this compound: Nc1ccccc1C#C/C=C\C#CC#C/C=C\C#Cc1ccccc1N
# output 27.2 µM

# input Form field: reported TGI of Cc1cn(C2C=CC(COP(=O)(OCc3ccc([N+](=O)[O-])o3)N(C)CCCCCl)O2)c(=O)[nH]c1=O (stereo unspecified)
# output 23.6 µM

# input Look up TGI: C/C(=N\NC(N)=S)c1ccc(C)c(C)c1
# output > 100 µM

# input Look up TGI: C[C@]12CC[C@@H]3c4ccc(O)cc4CC[C@H]3[C@@H]1CC[C@@H]2NS(=O)(=O)c1ccc(Br)cc1
# output 4.17 µM

# input I'd like to know its TGI. The compound in question is O=C(Cc1nc2sc3c(c2c(=O)[nH]1)CCCC3)Nc1ccccc1
# output > 100 µM

# input Given the compound COc1ccc(C(=O)NC2=C(Cl)C(=O)c3ccccc3C2=O)cc1 , what is its reported TGI?
# output 9.32 µM

# input Endpoint output: TGI of CC[C@@]1(OC(=O)C(N)CCCCN)C(=O)OCc2c1cc1n(c2=O)Cc2cc3ccccc3nc2-1 (stereo partly specified) . Value?
# output 2.7 µM

# input Form field: reported TGI of CCO/S(=N/S(=O)(=O)c1ccccc1)c1ccccc1[N+](=O)[O-] (stereo unspecified)
# output > 100 µM

# input Looking for the measured TGI of CCOC(=O)C(C)Sc1nnc(COc2ccc(Cl)cc2)n1-c1ccccc1 (stereo unspecified) , can you help?
# output 46.9 µM

# input Please look up its TGI: COC(=O)CCC(=O)N1C/C(=C\c2ccccc2)C(=O)/C(=C/c2ccccc2)C1
# output 13.5 µM

# input Quick one: TGI for CN(C)CCNCc1ccc2c(-c3ccccc3)nc3cc(Cl)c(Cl)cc3n12 ?
# output 37.5 µM

# input // returns reported TGI for input CC(C)=Cc1cc(C)c2c3c(c(O)c(O)c(C)c13)C(C)=CC2=O
# output 50.9 µM

# input Please give the measured TGI for this compound: O=[P+](O)c1ccccn1
# output > 100 µM

# input Report TGI for COc1cccc2c1C1(O)C2CCCCCCCCCC12OCCCO2 (stereo unspecified) please.
# output > 94.2 µM

# input What value of TGI has been reported for the following compound? O=C(Nn1c(-c2cccs2)nc2ccc(I)cc2c1=O)c1ccccc1
# output > 100 µM

# input # TGI lookup, item Cc1ccc(/C=C2/N=C(N/N=C\C(O)C(O)C(O)CO)NC2=O)cc1 (stereo unspecified)
# output > 100 µM

# input What does the data say about its TGI? Entry: COc1ccc(/C(C)=N/NC(=O)CSc2nc3ccccc3c(=O)n2CCc2ccc(S(N)(=O)=O)cc2)cc1
# output 4.18 µM

# input Data request, read-out TGI, for NC(=S)N=Nc1c(O)[nH]c2c(Cl)cc(Cl)cc12
# output 30.3 µM

# input Please look up its TGI: Cc1cc(C(=O)/C=C/c2ccc[nH]2)ccc1-n1ccc(C(F)(F)F)n1
# output > 100 µM

# input GET /values?readout=TGI&item= O=C(O)[C@@H]1OCCOCCO[C@@H](C(=O)O)[C@H](C(=O)O)OCCOCCO[C@H]1C(=O)O
# output > 100 µM

# input Sample Nc1ccc(-c2cc(C(=O)Nc3nccs3)[nH]c(=S)n2)cc1 — what was its TGI?
# output > 100 µM

# input Data request, read-out TGI, for O=c1[nH]c2cc([N+](=O)[O-])ccc2nc1/C(=N/Nc1ccccc1)C(O)c1ccco1 (stereo unspecified)
# output 76.1 µM

# input Query (compound): CC(=O)N1c2ccccc2C2=NN(C)C(=N)SC21 (stereo unspecified) ; field requested: TGI
# output > 100 µM

# input Any idea what its TGI is? The compound is O=C1C2=Cc3ccccc3OC2(O)Oc2ccccc21 (stereo unspecified)
# output > 100 µM

# input Tell me the measured TGI of CNC(=O)N(CCC#N)CCN(C(=O)N(C)C)c1ccccc1 , please.
# output > 100 µM

# input Could you tell me which TGI is on file for COC(=O)C1CCC(=O)N1CN(C(C)=O)c1cc(OC)ccc1OC (stereo unspecified) ?
# output > 100 µM
